B1: HDV Ribozyme (parent)
chain: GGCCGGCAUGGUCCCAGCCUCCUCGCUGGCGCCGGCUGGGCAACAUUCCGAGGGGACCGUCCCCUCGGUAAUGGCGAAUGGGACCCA

variants of: B1; assay: self-cleavage, relative activity (ratio to wild type); higher = more cleavage; co-transcriptional
Classification field. Basis: self-cleavage. Definitions: low = under 0.2, intermediate = from 0.2 up to 0.6, high = 0.6 and over

* C15U A56C | high
* C64U C85A | high
* G80A C85U | intermediate
* G54C G82C | intermediate
* U12A U46G | low
* U23A C85A | high
* C33U G39C | low
* G35C U65G | intermediate
* C41U G73U | intermediate
* G2A C33U | low
* C57G C86G | high
* C24G C58G | low
* C14U G67U | high
* G50C A83U | intermediate
* C32U G82C | intermediate
* G54C C63G | high
* G29A C86U | low
* U9G G28C | intermediate
* C61A C64A | high
* G25A G38A | low
* C13G C22U | low
* C44A C49G | intermediate
